measured_target: T1, cyno FcRn/b2M (cyno, UniProt Q8SPV9 24-297; Q8SPW0 21-119, biotinylated)
T1 construct: bought recombinant biotinylated protein (Immunitrack ITF05 or ACRO FCM-C82W5); also called cFcRn; cFcRn/cb2M
T1 sequence (Q8SPV9 24-297 limits assumed, chain 1 of 2): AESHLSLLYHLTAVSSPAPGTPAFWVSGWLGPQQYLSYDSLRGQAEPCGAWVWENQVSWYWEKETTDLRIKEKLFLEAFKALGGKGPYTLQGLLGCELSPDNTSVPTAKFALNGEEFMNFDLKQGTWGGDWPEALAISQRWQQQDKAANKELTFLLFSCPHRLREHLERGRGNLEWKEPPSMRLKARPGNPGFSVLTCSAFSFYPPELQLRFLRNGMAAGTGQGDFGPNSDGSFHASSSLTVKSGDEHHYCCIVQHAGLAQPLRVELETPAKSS
T1 sequence (Q8SPW0 21-119 limits assumed, chain 2 of 2): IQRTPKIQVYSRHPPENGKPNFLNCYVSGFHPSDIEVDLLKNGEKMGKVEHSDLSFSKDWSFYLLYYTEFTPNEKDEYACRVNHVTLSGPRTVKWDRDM
assay_summary: SPR pH 7.4;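 note: surface plasmon resonance kinetics, periplasmic extracts diluted 1:10 flowed over immobilized target at 25 °C, 120 s association then 600–3600 s dissociation, buffer with 150 mM NaCl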
readout_name: log10(koff) (log10 of the value in s⁻¹)
A difference of one corresponds to tenfold koff; all values are log10 with koff in s⁻¹.

{"binder": "T0263018B11 Y32F (VHH, name in Kabat numbering, FLAG3-His6 tagged) VHH: EVQLVESGGGVVQPGGSLRLSCAASGFTFSSFAMYWVRQAPGKGLEWVSAISSGGGSTDYADSVKGRFTISRDNSKNTLYLQMNSLRPEDTALYYCAADTLYTSLTWYSYWGQGTLVTVSS", "reported_result": -1.72}
{"binder": "T0263018B11 S101M (VHH, name in Kabat numbering, FLAG3-His6 tagged) VHH: EVQLVESGGGVVQPGGSLRLSCAASGFTFSSYAMYWVRQAPGKGLEWVSAISSGGGSTDYADSVKGRFTISRDNSKNTLYLQMNSLRPEDTALYYCAADTLYTSLTWYMYWGQGTLVTVSS", "reported_result": -1.43}
{"binder": "T0263018B11 G54P (VHH, name in Kabat numbering, FLAG3-His6 tagged) VHH: EVQLVESGGGVVQPGGSLRLSCAASGFTFSSYAMYWVRQAPGKGLEWVSAISSGPGSTDYADSVKGRFTISRDNSKNTLYLQMNSLRPEDTALYYCAADTLYTSLTWYSYWGQGTLVTVSS", "reported_result": -1.39}
{"binder": "T0263018B11 S52Q (VHH, name in Kabat numbering, FLAG3-His6 tagged) VHH: EVQLVESGGGVVQPGGSLRLSCAASGFTFSSYAMYWVRQAPGKGLEWVSAIQSGGGSTDYADSVKGRFTISRDNSKNTLYLQMNSLRPEDTALYYCAADTLYTSLTWYSYWGQGTLVTVSS", "reported_result": -0.85}
{"binder": "T0263018B11 S30T (VHH, name in Kabat numbering, FLAG3-His6 tagged) VHH: EVQLVESGGGVVQPGGSLRLSCAASGFTFTSYAMYWVRQAPGKGLEWVSAISSGGGSTDYADSVKGRFTISRDNSKNTLYLQMNSLRPEDTALYYCAADTLYTSLTWYSYWGQGTLVTVSS", "reported_result": -1.21}

## Input What does the record list as log10(koff) for T0263018B11 Y32Q (VHH, name in Kabat numbering, FLAG3-His6 tagged) VHH: EVQLVESGGGVVQPGGSLRLSCAASGFTFSSQAMYWVRQAPGKGLEWVSAISSGGGSTDYADSVKGRFTISRDNSKNTLYLQMNSLRPEDTALYYCAADTLYTSLTWYSYWGQGTLVTVSS ?
## Output -1.00

## Input What does the record list as log10(koff) for T0263018B11 S30M (VHH, name in Kabat numbering, FLAG3-His6 tagged) VHH: EVQLVESGGGVVQPGGSLRLSCAASGFTFMSYAMYWVRQAPGKGLEWVSAISSGGGSTDYADSVKGRFTISRDNSKNTLYLQMNSLRPEDTALYYCAADTLYTSLTWYSYWGQGTLVTVSS ?
## Output -1.66

## Input What does the record list as log10(koff) for T0263018B11 S52aA (VHH, name in Kabat numbering, FLAG3-His6 tagged) VHH: EVQLVESGGGVVQPGGSLRLSCAASGFTFSSYAMYWVRQAPGKGLEWVSAISAGGGSTDYADSVKGRFTISRDNSKNTLYLQMNSLRPEDTALYYCAADTLYTSLTWYSYWGQGTLVTVSS ?
## Output -1.66

## Input What does the record list as log10(koff) for T0263018B11 G26Q (VHH, name in Kabat numbering, FLAG3-His6 tagged) VHH: EVQLVESGGGVVQPGGSLRLSCAASQFTFSSYAMYWVRQAPGKGLEWVSAISSGGGSTDYADSVKGRFTISRDNSKNTLYLQMNSLRPEDTALYYCAADTLYTSLTWYSYWGQGTLVTVSS ?
## Output -1.59

## Input What does the record list as log10(koff) for T0263018B11 S52aM (VHH, name in Kabat numbering, FLAG3-His6 tagged) VHH: EVQLVESGGGVVQPGGSLRLSCAASGFTFSSYAMYWVRQAPGKGLEWVSAISMGGGSTDYADSVKGRFTISRDNSKNTLYLQMNSLRPEDTALYYCAADTLYTSLTWYSYWGQGTLVTVSS ?
## Output -1.89

## Input What does the record list as log10(koff) for T0263018B11 G55D (VHH, name in Kabat numbering, FLAG3-His6 tagged) VHH: EVQLVESGGGVVQPGGSLRLSCAASGFTFSSYAMYWVRQAPGKGLEWVSAISSGGDSTDYADSVKGRFTISRDNSKNTLYLQMNSLRPEDTALYYCAADTLYTSLTWYSYWGQGTLVTVSS ?
## Output -1.15

## Input What does the record list as log10(koff) for T0263018B11 S56V (VHH, name in Kabat numbering, FLAG3-His6 tagged) VHH: EVQLVESGGGVVQPGGSLRLSCAASGFTFSSYAMYWVRQAPGKGLEWVSAISSGGGVTDYADSVKGRFTISRDNSKNTLYLQMNSLRPEDTALYYCAADTLYTSLTWYSYWGQGTLVTVSS ?
## Output -1.42
